Consider the following compounds and their measured TC 150 nM- tagless TNF Normalized readings.
biological target: TNFα and streptavidin immobilized FOL2R (Homo sapiens (Human), UniProt P01375+P14207); test: Ternary complex SPR assay; format: binding; settings: 150 nM untagged TNF, 10 nM compound; max response normalized to expected response
Sequence (P14207 17-230): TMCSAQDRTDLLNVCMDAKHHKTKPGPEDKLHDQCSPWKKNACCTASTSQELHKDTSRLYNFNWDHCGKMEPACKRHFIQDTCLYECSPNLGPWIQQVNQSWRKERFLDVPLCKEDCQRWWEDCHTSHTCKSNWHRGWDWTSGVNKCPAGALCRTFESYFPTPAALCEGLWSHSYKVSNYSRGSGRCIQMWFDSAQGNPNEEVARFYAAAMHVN
Sequence (P01375 77-233): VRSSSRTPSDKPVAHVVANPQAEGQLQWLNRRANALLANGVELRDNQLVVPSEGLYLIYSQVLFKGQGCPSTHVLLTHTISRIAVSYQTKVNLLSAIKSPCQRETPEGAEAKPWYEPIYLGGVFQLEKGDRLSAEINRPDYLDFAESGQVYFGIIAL
Observed Property: TC 150 nM- tagless TNF Normalized (%)

INSERT INTO measurements (compound, test_system, observed_property, data_value) VALUES
  ('Cc1nc2cc(F)c(-c3cnc(N4CCN(C(=O)COCCOCCOCCOCCOCCOCCn5cc(CC[C@H](NC(=O)c6ccc(N(C)Cc7cnc8nc(N)[nH]c(=O)c8n7)cc6)C(=O)O)nn5)CC4)nc3)nc2c(N[C@H](C)c2cc(C#N)ccc2F)c1Cl [Compound I-86]', 'TNFα and streptavidin immobilized FOL2R (Homo sapiens (Human), UniProt P01375+P14207)', 'TC 150 nM- tagless TNF Normalized', 20.1),
  ('Cc1nc2cc(F)c(-c3cnc(N4CCN(C(=O)COCCn5cc(COCCOCCOCCN6CCN(C(=O)[C@H](CCC(=O)O)NC(=O)c7ccc(NCc8cnc9nc(N)nc(O)c9n8)cc7)CC6)nn5)CC4)nc3)nc2c(N[C@H](C)c2cc(C#N)ccc2F)c1Cl [Compound I-97]', 'TNFα and streptavidin immobilized FOL2R (Homo sapiens (Human), UniProt P01375+P14207)', 'TC 150 nM- tagless TNF Normalized', 18.4),
  ('Cc1nc2cc(F)c(-c3cnc(N4CCN(C(=O)COCCn5cc(COCCOCCOCCOCCNC(=O)CC[C@H](NC(=O)c6ccc(NCc7cnc8nc(N)nc(O)c8n7)cc6)C(=O)O)nn5)CC4)nc3)nc2c(N[C@H](C)c2cc(C#N)ccc2F)c1Cl [Compound I-45]', 'TNFα and streptavidin immobilized FOL2R (Homo sapiens (Human), UniProt P01375+P14207)', 'TC 150 nM- tagless TNF Normalized', 16.3),
  ('Cc1nc2cc(F)c(-c3cnc(N4CCN(C(=O)COCCn5cc(COCCOCCOCCN6CCN(C(=O)CC[C@H](NC(=O)c7ccc(NCc8cnc9nc(N)nc(O)c9n8)cc7)C(=O)O)CC6)nn5)CC4)nc3)nc2c(N[C@H](C)c2cc(C#N)ccc2F)c1Cl [Compound I-95]', 'TNFα and streptavidin immobilized FOL2R (Homo sapiens (Human), UniProt P01375+P14207)', 'TC 150 nM- tagless TNF Normalized', 17.3);
